- Test system: HeLa
- procedure_details: nuclear count per well, robust Z-score vs DMSO; higher = more cells (less toxicity)
- cond: 10 µM; 6 h

| compound | assay_target | nuclear count per well |
| --- | --- | --- |
| CCC(=O)NCC[C@@H]1CCc2ccc3c(c21)CCO3 | HeLa | -0.354 |
| CC(C)[C@H]1CC[C@H](C(=O)N[C@H](Cc2ccccc2)C(=O)O)CC1 [Nateglinide] | HeLa | -0.477 |
| O=C(O)CC(O)(CC(=O)O)C(=O)O | HeLa | -0.242 |
| CCC(C)C(COC(Cc1ccccc1)C(=O)NC(CCS(C)(=O)=O)C(=O)OC(C)C)NCC(N)CS (stereo not given) | HeLa | 0.367 |
| CNCc1ccc(C)c(NC(=O)c2ccc(Nc3nc(-c4ccccc4)c4ccccc4n3)cc2)c1 | HeLa | 0.283 |

* * *

Reported MALAT1 nuclear FISH intensity values follow for various compounds
- Test system: HeLa
- procedure_details: MALAT1 nuclear FISH intensity, robust Z-score vs DMSO; higher = more nuclear MALAT1 lncRNA, active = -3 or less
- cond: 10 µM; 6 h

| compound | assay_target | MALAT1 nuclear FISH intensity |
| --- | --- | --- |
| Cc1onc(-c2ccccc2Cl)c1C(=O)N[C@@H]1C(=O)N2[C@@H]1SC(C)(C)[C@@H]2C(=O)O | HeLa | -0.819 (inactive) |
| CC[C@H](C)C(=O)O[C@H]1CCC=C2C=C[C@H](C)[C@H](CC[C@@H]3C[C@@H](O)CC(=O)O3)[C@H]21 [Mevastatin] | HeLa | -1.03 (inactive) |
| COC(=O)C1=C(C)NC(C)=C(C(=O)OCC(C)C)C1c1ccccc1[N+](=O)[O-] (stereo not given) [Nisoldipine] | HeLa | 0.765 (inactive) |
| CCC[C@H](N[C@H]1CCc2cc(F)cc(F)c2C1)C(=O)Nc1cn(C(C)(C)CNCC(C)(C)C)cn1 | HeLa | -0.158 (inactive) |
| CC1(C)CCC2=C(O1)c1ccccc1C(=O)C2=O [Beta-lapachone] | HeLa | -8.68 (active) |

* * *

- Tested on: HeLa
- procedure_details: MALAT1 nuclear FISH intensity, robust Z-score vs DMSO; higher = more nuclear MALAT1 lncRNA, active = -3 or less
- cond: 10 µM; 6 h
Where a name gives a salt, the structure may show the parent alone.
Labels: Yes for active, No for inactive

| molecule | assay_target | class_assignment |
| --- | --- | --- |
| CCCCC[C@H](O)/C=C/[C@@H]1[C@@H](C/C=C\CCCC(=O)O)[C@H](O)C[C@H]1O [9b,11a-Prostaglandin F2] | HeLa | No |
| CC1=C(/C=C/C(C)=C/C=C/C(C)=C\C(=O)O)C(C)(C)CCC1 [13-cis retinoic acid] | HeLa | No |
| CN(C)CC/C=C1/c2ccccc2COc2ccc(CC(=O)O)cc21 | HeLa | No |
| N[C@@H]1[C@H]2CN(c3nc4c(cc3F)c(=O)c(C(=O)O)cn4-c3ccc(F)cc3F)C[C@@H]12 [Trovafloxacin mesylate] | HeLa | No |
| C[C@@H]1C[C@H]2[C@@H]3CCC4=CC(=O)C=C[C@]4(C)[C@@]3(Cl)[C@@H](O)C[C@]2(C)[C@@]1(OC(=O)c1ccco1)C(=O)CCl [Mometasone Furoate] | HeLa | No |
| CCCc1nc(C(C)(C)O)c(C(=O)O)n1Cc1ccc(-c2ccccc2-c2nnn[nH]2)cc1 | HeLa | No |
| c1ccc2c(-c3ccncc3)c[nH]c2c1 | HeLa | No |
| NC[C@@H]1O[C@H](O[C@H]2[C@@H](O)[C@H](O[C@@H]3[C@@H](O)[C@H](N)C[C@H](N)[C@H]3O[C@H]3O[C@H](CO)[C@@H](O)[C@H](O)[C@H]3N)O[C@@H]2CO)[C@H](N)[C@@H](O)[C@@H]1O [Paromomycin Sulfate] | HeLa | No |
| CCCCC[C@H](O)/C=C/[C@H]1[C@H](O)CC(=O)[C@@H]1CCCCCCC(=O)O | HeLa | No |
| CCC1(C)CC(=O)NC1=O (stereo not given) [Ethosuximide] | HeLa | No |
| Cc1oncc1C(=O)Nc1ccc(C(F)(F)F)cc1 [Leflunomide] | HeLa | No |
| CO[C@H]1C[C@@H]2CC[C@@H](C)[C@@](O)(O2)C(=O)C(=O)N2CCCC[C@H]2C(=O)O[C@H]([C@H](C)C[C@@H]2CC[C@@H](OCCO)[C@H](OC)C2)CC(=O)[C@H](C)/C=C(\C)[C@@H](O)[C@@H](OC)C(=O)[C@H](C)C[C@H](C)/C=C/C=C/C=C/1C | HeLa | No |
| CC(=O)N[C@@H](CC(C)C)C(=O)N[C@@H](CC(C)C)C(=O)N[C@H](C=O)CCCNC(=N)N [Leupeptin hemisulfate salt] | HeLa | No |
| CC(C)C[C@H](NC(=O)[C@@H](Cc1c[nH]c2ccccc12)NC(=O)[C@H](Cc1ccc(O)cc1)NC(=O)[C@H](CO)NC(=O)[C@H](Cc1c[nH]c2ccccc12)NC(=O)[C@H](Cc1cnc[nH]1)NC(=O)[C@@H]1CCC(=O)N1)C(=O)N[C@@H](CCCN=C(N)N)C(=O)N1CCC[C@H]1C(=O)NCC(N)=O [Triptorelin Acetate] | HeLa | No |
| CC(C)(O)c1ccccc1CC[C@@H](SCC1(CC(=O)O)CC1)c1cccc(/C=C/c2ccc3ccc(Cl)cc3n2)c1 | HeLa | No |
| CCCCCCCCCCCCC(O)C(=O)O (stereo not given) [2-Hydroxymyristic acid] | HeLa | No |
| CCCCCC[C@@H]([C@@H](C)O)n1cnc2c(N)ncnc21 (racemic) | HeLa | No |
| O=C(Nc1ccc([N+](=O)[O-])cc1Cl)c1cc(Cl)ccc1O [Niclosamide] | HeLa | Yes |
| CCCCOc1ccc(CC/C=C2\SC(=O)N(CCN)C2=O)cc1 [K145 hydrochloride] | HeLa | No |
| Oc1ccc(/C=C/c2cc(O)cc(O)c2)cc1 | HeLa | No |
| COc1cc2c(cc1OC)C(=O)C(CC1CCN(Cc3ccccc3)CC1)C2 (stereo not given) | HeLa | No |
| Cc1cnc(NC(=O)C2=C(O)c3ccccc3S(=O)(=O)N2C)s1 | HeLa | No |
| CC1=C(/C=C/C(C)=C/C=C/C(C)=C/C(=O)O)C(C)(C)CCC1 | HeLa | No |
| CCC1=C(C)CN(C(=O)NCCc2ccc(S(=O)(=O)NC(=O)N[C@H]3CC[C@H](C)CC3)cc2)C1=O [Glimepiride] | HeLa | No |
| O=c1ncccn1[C@@H]1O[C@H](CO)[C@@H](O)[C@H]1O | HeLa | No |

* * *

- Test system: HeLa
- procedure_details: MALAT1 nuclear FISH intensity, robust Z-score vs DMSO; higher = more nuclear MALAT1 lncRNA, active = -3 or less
- cond: 10 µM; 6 h
Structures can show the parent of a compound that is named as a salt.
Respond with criterion met for MALAT1 nuclear FISH intensity values of 0.2 and above, criterion not met for values below.

| compound | class_assignment |
| --- | --- |
| CC(C)C(=O)OCC(=O)[C@@]12O[C@H](C3CCCCC3)O[C@@H]1C[C@H]1[C@@H]3CCC4=CC(=O)C=C[C@]4(C)[C@H]3[C@@H](O)C[C@@]12C [Ciclesonide] | criterion met |
| NS(=O)(=O)c1cc2c(cc1Cl)N=CNS2(=O)=O [Chlorothiazide] | criterion not met |
| O=C(c1ccc(OCCN2CCCCC2)cc1)c1c(-c2ccc(O)cc2)sc2cc(O)ccc12 | criterion met |
| Nc1ccc(O)c(C(=O)O)c1 [Mesalamine (5-Aminosalicylic Acid)] | criterion met |
| CCCCCCCCCCCCC/C=C/[C@@H](O)[C@H](CO)NCCCCCCCC | criterion not met |
| CC(C)(C)c1cc(C=C(C#N)C(N)=S)cc(C(C)(C)C)c1O | criterion not met |
| CCCCC[C@H](O)/C=C/[C@H]1C=CC(=O)[C@@H]1C/C=C\CCCC(=O)O | criterion not met |
| CC/C(=C(\c1ccccc1)c1ccc(OCCN(C)C)cc1)c1ccccc1 [Tamoxifen citrate] | criterion met |
| NCC(=O)CCC(=O)O | criterion not met |
| CC(C)COCC(CN(Cc1ccccc1)c1ccccc1)N1CCCC1 (configuration not stated) [Bepridil hydrochloride] | criterion not met |
| CC(=O)OCC(=O)[C@@]1(O)CC[C@H]2[C@@H]3CCC4=CC(=O)CC[C@]4(C)[C@H]3[C@@H](O)C[C@@]21C [Hydrocortisone Acetate] | criterion met |
| Cc1cccc(Nc2ccccc2C(=O)O)c1C | criterion met |
| CCN(CCO)CCCC(C)Nc1ccnc2cc(Cl)ccc12 (configuration not stated) [Hydroxychloroquine Sulfate] | criterion not met |
| CO/N=C(\C(=O)N[C@@H]1C(=O)N2C(C(=O)O)=C(COC(N)=O)CS[C@H]12)c1ccco1 | criterion not met |
| O=C1CCCC(=O)C1C(=O)c1ccc(C(F)(F)F)cc1[N+](=O)[O-] | criterion not met |
| CN(C/C=C/C#CC(C)(C)C)Cc1cccc2ccccc12 | criterion not met |
| COc1cc2nc(N3CCN(C(=O)c4ccco4)CC3)nc(N)c2cc1OC [Prazocin] | criterion not met |
| C#Cc1cccc(Nc2ncnc3cc(OCCOC)c(OCCOC)cc23)c1 | criterion met |
| Clc1ccc2c(c1)CCc1cccnc1C2=C1CCNCC1 | criterion not met |
| Nc1nc(=O)n([C@@H]2CS[C@H](CO)O2)cc1F | criterion met |
| CCCCC/C=C\CC1OC1C/C=C\C/C=C\CCCC(=O)O (configuration not stated) | criterion met |
| O=C(NCc1ncc(C(F)(F)F)cc1Cl)c1c(Cl)cccc1Cl [Fluopicolide] | criterion not met |
